system_name: rat VMAT2-His (Rattus norvegicus, UniProt Q01827)
Construct: The ORF of rat VMAT2 was subcloned into a pFastBac vector; His; made in house; host or cells: Sf9 insect cells (baculovirus)
Sequence (Q01827 whole entry): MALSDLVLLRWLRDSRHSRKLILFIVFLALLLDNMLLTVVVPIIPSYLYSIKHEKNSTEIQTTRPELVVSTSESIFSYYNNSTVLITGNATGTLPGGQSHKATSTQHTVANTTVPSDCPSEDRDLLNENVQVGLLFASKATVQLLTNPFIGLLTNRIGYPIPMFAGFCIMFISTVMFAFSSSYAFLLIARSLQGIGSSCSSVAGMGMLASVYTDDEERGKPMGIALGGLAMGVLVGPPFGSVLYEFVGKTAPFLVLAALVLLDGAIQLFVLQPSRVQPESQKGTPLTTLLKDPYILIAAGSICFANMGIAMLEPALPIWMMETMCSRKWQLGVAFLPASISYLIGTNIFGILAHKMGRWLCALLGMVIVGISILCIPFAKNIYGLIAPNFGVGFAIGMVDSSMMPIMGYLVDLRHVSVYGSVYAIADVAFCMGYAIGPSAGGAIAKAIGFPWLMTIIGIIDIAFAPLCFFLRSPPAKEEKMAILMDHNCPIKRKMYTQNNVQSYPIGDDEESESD
method_notes: Differential scanning fluorimetry (DSF) with CPM dye: change of melting temperature of purified VMAT2
Type: binding
assay_conditions: 37 µM
Where a name gives a salt, the structure may show the parent alone.
endpoint: ΔTm

Sample records with ΔTm:
1. Cl.Cl.OCCN1CCN(CC/C=C2/c3ccccc3Sc3ccc(Cl)cc32)CC1 [Zuclopenthixol dihydrochloride] = -0,44 oC
2. CCSc1ccc2c(c1)N(CCCN1CCN(C)CC1)c1ccccc1S2.O=C(O)CC(O)C(=O)O.O=C(O)CC(O)C(=O)O [Thiethylperazine dimalate] = -0,58 oC
3. CC(C)NCC(O)c1ccc2ccccc2c1 (stereo not shown) [Pronethalol, Pronethalol hydrochloride] = 0,21 oC

// switching to the query compound
Inquiry: Give ΔTm (rat VMAT2-His (Rattus norvegicus, UniProt Q01827)) of the following compound: CC(C(O)c1ccc(O)cc1)N1CCC(Cc2ccccc2)CC1.CC(C(O)c1ccc(O)cc1)N1CCC(Cc2ccccc2)CC1.O=C(O)C(O)C(O)C(=O)O (stereo not shown) [Ifenprodil tartrate]
Reply text: 0,32 oC

---

system_name: rat VMAT2-His (Rattus norvegicus)
Construct: The ORF of rat VMAT2 was subcloned into a pFastBac vector; His; made in house; host or cells: Sf9 insect cells (baculovirus)
method_notes: Differential scanning fluorimetry (DSF) with CPM dye: change of melting temperature of purified VMAT2
Type: binding
assay_conditions: Table S2 dose response, compound 0,37 µM; read-out: ΔTm
Method: To screen purified VMAT2 by DSF we expressed the rat VMAT2 protein, as VMAT2-His, in SF9 insect cells using the baculovirus expression system. […] Protein melting curves were determined using a LightCycler 480 ii RT-PCR system (Roche), with a temperature ramp increasing from 25 to 95 °C at a rate of 2 °C/min. […]
Where a name gives a salt, the structure may show the parent alone.
Here the recorded ΔTm at 37 µM is given for each entry.

1. COc1ccc(CN2CCN(C(c3ccc(F)cc3)c3ccc(F)cc3)CC2)c(OC)c1OC [Lomerizine, Lomerizine hydrochloride] = -0.99 °C
2. C[C@H](CCC(=O)O)[C@H]1CC[C@H]2[C@@H]3[C@H](O)C[C@@H]4C[C@H](O)CC[C@]4(C)[C@H]3CC[C@]12C [Chenodiol] = -0.01 °C
3. C=CCc1ccccc1OCC(O)CNC(C)C (stereo not shown) [Alprenolol hydrochloride] = -0.04 °C

Inquiry: Give ΔTm at 37 µM (rat VMAT2-His (Rattus norvegicus)) of the following compound: CCCNCC(O)COc1ccccc1C(=O)CCc1ccccc1 (stereo not shown) [Propafenone, Propafenone hydrochloride]
Reply text: 0.99 °C

---

system_name: VMAT2 (Rattus norvegicus, UniProt Q01827)
Sequence (Q01827 whole entry): as above
assay_conditions: hek293 cells, 50 µM
Where a name gives a salt, the structure may show the parent alone.
activity vs 90%: less than gives fulfilled; not less than gives not fulfilled.

Reference set, count: 5
1) O=C1Cc2cc(CCN3CCN(c4nsc5ccccc45)CC3)c(Cl)cc2N1 [Ziprasidone, Ziprasidone Hydrochloride] = fulfilled
2) CCN(CC)CCCC(C)Nc1ccnc2cc(Cl)ccc12 (stereo not drawn) [Chloroquine] = fulfilled
3) CC(C)n1c(/C=C/C(O)CC(O)CC(=O)O)c(-c2ccc(F)cc2)c2ccccc21 (stereo not drawn) [Fluvastatin, Fluvastatin sodium salt] = fulfilled
4) COc1ccc(CN2CCN(C(c3ccc(F)cc3)c3ccc(F)cc3)CC2)c(OC)c1OC [Lomerizine, Lomerizine hydrochloride] = not fulfilled
5) COc1ccc(CC(C)(C)NC[C@H](O)c2cc(O)cc3c2OCC(=O)N3)cc1 [Olodaterol] = not fulfilled

Inquiry: Bench note: check whether CCc1cc2c(cc1CC)CC(NC[C@H](O)c1ccc(O)c3[nH]c(=O)ccc13)C2 [Indacaterol] shows activity below 90%
Reply text: fulfilled

Inquiry: Bench note: check whether OCc1cc(C(O)CNCCCCCCOCCCCc2ccccc2)ccc1O (stereo not drawn) [Salmeterol] shows activity below 90%
Reply text: fulfilled

Inquiry: Bench note: check whether COc1ccccc1OCCNCC(O)COc1cccc2[nH]c3ccccc3c12 (stereo not drawn) [Carvedilol] shows activity below 90%
Reply text: fulfilled

---

system_name: rat VMAT2-His (Rattus norvegicus, UniProt Q01827)
Construct: The ORF of rat VMAT2 was subcloned into a pFastBac vector; His; made in house; host or cells: Sf9 insect cells (baculovirus)
method_notes: Differential scanning fluorimetry (DSF) with CPM dye: change of melting temperature of purified VMAT2
Format: binding
assay_conditions: Table 1, DSF screening, mean ± SD of triplicates
Where a name gives a salt, the structure may show the parent alone.
Recorded ΔTm determines the label; the label ranges are low = under 1 oC, medium = from 1 oC up to 5 oC, high = 5 oC and over

Reference set, count: 4
1) OC(CCN1CCCCC1)(c1ccccc1)C1CC2C=CC1C2 (stereo not drawn) [Biperiden, Biperiden hydrochloride] = medium
2) CC(C)NCC(O)COc1ccc(COCCOC(C)C)cc1 (stereo not drawn) = medium
3) CCCNCC(O)COc1ccccc1C(=O)CCc1ccccc1 (stereo not drawn) [Propafenone, Propafenone hydrochloride] = medium
4) COc1ccc(CC(C)(C)NC[C@H](O)c2cc(O)cc3c2OCC(=O)N3)cc1 = medium

Inquiry: Given "CCc1cc2c(cc1CC)CC(NC[C@H](O)c1ccc(O)c3[nH]c(=O)ccc13)C2" , name the class its ΔTm places it in.
Reply text: low

Inquiry: Given COc1ccc2[nH]c([S+]([O-])Cc3ncc(C)c(OC)c3C)nc2n1 (stereo not drawn) , name the class its ΔTm places it in.
Reply text: high

Inquiry: Given COc1cc2c(cc1OC)C1CC(=O)C(CC(C)C)CN1CC2 (stereo not drawn) , name the class its ΔTm places it in.
Reply text: high

Inquiry: Given OCc1cc(C(O)CNCCCCCCOCCCCc2ccccc2)ccc1O (stereo not drawn) , name the class its ΔTm places it in.
Reply text: high

Inquiry: Given O=C1Cc2cc(CCN3CCN(c4nsc5ccccc45)CC3)c(Cl)cc2N1 [Ziprasidone, Ziprasidone Hydrochloride] , name the class its ΔTm places it in.
Reply text: medium

---

system_name: rat VMAT2 Q143A (Rattus norvegicus, UniProt Q01827, Q143A)
Sequence (Q01827 whole entry Q143A): as the sequence (Q01827 whole entry) above, with Q143A counted along it
method_notes: FFN206 uptake assay, VMAT2 mutant
Counter-ions that a name gives are not always drawn.
Here the recorded pIC50 is given for each entry.
Kindly note that pIC50 refers to -log10 of the concentration in mol/L and answer with the value alone.

1. O=C1Cc2cc(CCN3CCN(c4nsc5ccccc45)CC3)c(Cl)cc2N1 [Ziprasidone, Ziprasidone Hydrochloride] = 6.45

// switching to the query compound
Inquiry: Report pIC50 for OCc1cc(C(O)CNCCCCCCOCCCCc2ccccc2)ccc1O (centres unmarked) please.
Reply text: 6.83

---

system_name: rat VMAT2-His (Rattus norvegicus, UniProt Q01827)
Construct: The ORF of rat VMAT2 was subcloned into a pFastBac vector; His; made in house; host or cells: Sf9 insect cells (baculovirus)
method_notes: Differential scanning fluorimetry (DSF) with CPM dye: change of melting temperature of purified VMAT2
Format: binding
assay_conditions: Table S2 dose response, compound 0,37 µM; read-out: ΔTm
Structures can show the parent of a compound that is named as a salt.
endpoint: ΔTm at 37 µM (°C)
Output spec: scalar in °C, unitless text.

1) COc1cc2c(cc1OC)C1CC(=O)C(CC(C)C)CN1CC2 (stereo not shown) [Tetrabenazine] = 5.05

Inquiry: Report ΔTm at 37 µM for OC(c1cc(C(F)(F)F)nc2c(C(F)(F)F)cccc12)C1CCCCN1 (stereo not shown) [Mefloquine hydrochloride] please.
Reply text: 0.04

Inquiry: Report ΔTm at 37 µM for CCCc1nn(C)c2c(=O)[nH]c(-c3cc(S(=O)(=O)N4CCN(C)CC4)ccc3OCC)nc12 [Sildenafil] please.
Reply text: 0.04

Inquiry: Report ΔTm at 37 µM for CCCC(=O)Nc1ccc(OCC(O)CNC(C)C)c(C(C)=O)c1 (stereo not shown) [Acebutolol, Acebutolol hydrochloride] please.
Reply text: 0.03

---

system_name: rat VMAT2-His (Rattus norvegicus, UniProt Q01827)
Construct: The ORF of rat VMAT2 was subcloned into a pFastBac vector; His; made in house; host or cells: Sf9 insect cells (baculovirus)
method_notes: Differential scanning fluorimetry (DSF) with CPM dye: change of melting temperature of purified VMAT2
Type: binding
assay_conditions: Table S2 dose response, compound 1,11 µM; read-out: ΔTm
Structures can show the parent of a compound that is named as a salt.
Here the recorded ΔTm at 11 µM is given for each entry.
Answer with the value and then the unit.

1) CCCCC(CC)CN1CN(CC(CC)CCCC)CC(C)(N)C1 (stereo not shown) = -0.02 °C
2) COc1ccc2[nH]c([S+]([O-])Cc3ncc(C)c(OC)c3C)nc2n1 (stereo not shown) = 1.3 °C
3) C=CCc1ccccc1OCC(O)CNC(C)C (stereo not shown) [Alprenolol hydrochloride] = 0.04 °C

Inquiry: Report ΔTm at 11 µM for "C[C@H](CCC(=O)O)[C@H]1CC[C@H]2[C@@H]3[C@H](O)C[C@@H]4C[C@H](O)CC[C@]4(C)[C@H]3CC[C@]12C" please.
Reply text: 0.17 °C

Inquiry: Report ΔTm at 11 µM for OC(c1cc(C(F)(F)F)nc2c(C(F)(F)F)cccc12)C1CCCCN1 (stereo not shown) [Mefloquine hydrochloride] please.
Reply text: 0 °C

Inquiry: Report ΔTm at 11 µM for CC(C)n1c(/C=C/C(O)CC(O)CC(=O)O)c(-c2ccc(F)cc2)c2ccccc21 (stereo not shown) [Fluvastatin, Fluvastatin sodium salt] please.
Reply text: 0.71 °C

Inquiry: Report ΔTm at 11 µM for Fc1ccc(C(OCCN2CCN(CCCc3ccccc3)CC2)c2ccc(F)cc2)cc1 [GBR 12909 dihydrochloride] please.
Reply text: 0.05 °C

Inquiry: Report ΔTm at 11 µM for CC(C)COCC(CN(Cc1ccccc1)c1ccccc1)N1CCCC1 (stereo not shown) [Bepridil hydrochloride] please.
Reply text: -0.75 °C

Inquiry: Report ΔTm at 11 µM for O=C1Cc2cc(CCN3CCN(c4nsc5ccccc45)CC3)c(Cl)cc2N1 [Ziprasidone, Ziprasidone Hydrochloride] please.
Reply text: 0.69 °C

Inquiry: Report ΔTm at 11 µM for CCCC(=O)Nc1ccc(OCC(O)CNC(C)C)c(C(C)=O)c1 (stereo not shown) [Acebutolol, Acebutolol hydrochloride] please.
Reply text: 0.3 °C
